Values were extracted from ChEMBL document CHEMBL5113435.

Attribute: EC50
Biological target: Voltage-gated potassium channel, KQT; KCNQ2(Kv7.2)/KCNQ3(Kv7.3) (Homo sapiens, UniProt O43525+O43526)
Sequence (O43526 whole entry): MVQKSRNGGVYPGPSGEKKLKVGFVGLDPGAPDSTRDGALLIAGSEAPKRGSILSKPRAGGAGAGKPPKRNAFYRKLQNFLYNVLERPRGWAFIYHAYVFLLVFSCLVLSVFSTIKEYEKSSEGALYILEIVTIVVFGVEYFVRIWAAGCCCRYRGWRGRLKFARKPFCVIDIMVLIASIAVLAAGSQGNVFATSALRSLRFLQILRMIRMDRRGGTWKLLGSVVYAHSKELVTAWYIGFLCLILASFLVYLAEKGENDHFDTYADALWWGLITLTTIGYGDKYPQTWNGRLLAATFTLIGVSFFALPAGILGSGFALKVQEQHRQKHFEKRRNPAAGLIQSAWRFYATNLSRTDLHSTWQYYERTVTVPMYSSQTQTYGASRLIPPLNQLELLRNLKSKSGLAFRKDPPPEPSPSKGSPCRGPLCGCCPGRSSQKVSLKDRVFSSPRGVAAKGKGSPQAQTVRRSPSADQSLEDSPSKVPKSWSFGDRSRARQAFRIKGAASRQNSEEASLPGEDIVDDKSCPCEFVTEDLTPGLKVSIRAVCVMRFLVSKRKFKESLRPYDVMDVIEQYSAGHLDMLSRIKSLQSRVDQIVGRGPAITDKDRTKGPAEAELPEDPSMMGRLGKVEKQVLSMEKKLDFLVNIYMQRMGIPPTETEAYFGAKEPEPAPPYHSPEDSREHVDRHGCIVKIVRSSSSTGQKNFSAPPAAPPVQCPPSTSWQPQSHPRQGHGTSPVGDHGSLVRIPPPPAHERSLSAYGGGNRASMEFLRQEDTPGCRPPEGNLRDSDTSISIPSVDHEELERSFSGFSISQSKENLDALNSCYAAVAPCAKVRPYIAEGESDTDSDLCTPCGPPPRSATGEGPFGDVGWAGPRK
Sequence (O43525 whole entry): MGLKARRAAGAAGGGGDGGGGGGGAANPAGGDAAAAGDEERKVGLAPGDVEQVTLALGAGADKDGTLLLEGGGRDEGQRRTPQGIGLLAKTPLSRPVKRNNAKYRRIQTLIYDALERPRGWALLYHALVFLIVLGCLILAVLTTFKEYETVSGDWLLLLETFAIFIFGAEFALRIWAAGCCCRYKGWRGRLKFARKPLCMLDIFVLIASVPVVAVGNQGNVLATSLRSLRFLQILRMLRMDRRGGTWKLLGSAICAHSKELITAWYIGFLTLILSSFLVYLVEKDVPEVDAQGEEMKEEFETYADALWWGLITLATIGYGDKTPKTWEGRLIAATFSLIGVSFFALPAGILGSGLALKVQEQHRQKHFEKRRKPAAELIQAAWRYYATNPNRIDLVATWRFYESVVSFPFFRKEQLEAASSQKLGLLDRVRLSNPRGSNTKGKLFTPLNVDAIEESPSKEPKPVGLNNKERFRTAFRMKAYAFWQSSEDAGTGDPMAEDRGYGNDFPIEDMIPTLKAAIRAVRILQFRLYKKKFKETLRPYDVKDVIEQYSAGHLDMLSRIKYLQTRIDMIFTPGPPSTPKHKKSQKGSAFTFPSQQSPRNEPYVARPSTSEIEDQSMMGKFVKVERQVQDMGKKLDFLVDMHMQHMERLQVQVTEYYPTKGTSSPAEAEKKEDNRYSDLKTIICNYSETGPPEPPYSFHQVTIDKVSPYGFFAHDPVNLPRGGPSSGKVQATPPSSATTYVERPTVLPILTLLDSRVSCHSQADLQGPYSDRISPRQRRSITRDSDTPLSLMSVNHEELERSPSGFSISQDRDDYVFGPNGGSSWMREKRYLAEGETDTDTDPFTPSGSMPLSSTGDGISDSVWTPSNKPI
Experiment: Agonist activity at Kv7.2/3 (unknown origin) expressed in CHO cells co-expressing GFP
experimental.readout: EC50 (nM)

[
  {
    "smiles.data": "Nc1c(NC(=O)OC2CC2)ccc(NCc2ccc(C(F)(F)F)cc2)c1F",
    "numeric.value": 18
  },
  {
    "smiles.data": "CCOC(=O)Nc1ccc(NCc2ccc(C(F)(F)F)nc2)c(F)c1N",
    "numeric.value": 3360
  }
]

###

Organism: Homo sapiens
Conditions: filed as agonist, dose 5.0 µM
Description: Agonist activity at Kv7.2 W236L mutant (unknown origin) assessed as shifting of voltage dependent activation to more negative potentials at 5 uM by SyncroPatch assay

[
  {
    "compound": "O=C(Cc1ccc(OC(F)(F)F)cc1)Nc1ccc2[nH]c(-c3ccc(C(F)(F)F)cc3)cc2c1",
    "units.text": "mV",
    "V1/2": 3.9
  },
  {
    "compound": "O=C(Cc1cc(F)cc(F)c1)Nc1ccc2[nH]c(-c3ccc(C(F)(F)F)cc3)cc2c1",
    "units.text": "mV",
    "V1/2": 2.4
  },
  {
    "compound": "COc1ccc2c(c1)[C@@H](NC(=O)OCc1ccccc1)[C@H](C)[C@@H](c1ccccc1)N2C(=O)NC(C)C",
    "units.text": "mV",
    "V1/2": 4.9
  },
  {
    "compound": "Nc1c(NC(=O)OC2CC2)ccc(NCc2ccc(C(F)(F)F)cc2)c1F",
    "units.text": "mV",
    "V1/2": -9.3
  },
  {
    "compound": "CC(C)(C)CC(=O)Nc1ccc2[nH]c(-c3ccc(C(F)(F)F)cc3)cc2c1",
    "units.text": "mV",
    "V1/2": 3.2
  },
  {
    "compound": "CCOC(=O)Nc1cc(F)c2c(c1N)S(=O)(=O)CC(c1ccccc1)N2 (stereo not given)",
    "units.text": "mV",
    "V1/2": 2.8
  },
  {
    "compound": "CCOC(=O)Nc1ccc2[nH]c(-c3ccc(F)cc3)cc2c1",
    "units.text": "mV",
    "V1/2": 2.5
  },
  {
    "compound": "COc1ccc2c(c1)[C@@H](NC(C)=O)[C@H](C)[C@@H](c1ccccc1)N2C(C)=O",
    "units.text": "mV",
    "V1/2": 0.26
  },
  {
    "compound": "CCOC(=O)Nc1ccc(NCc2ccc(F)cc2)nc1N",
    "units.text": "mV",
    "V1/2": 1.2
  },
  {
    "compound": "O=C(Nc1ccc2[nH]c(-c3ccc(C(F)(F)F)cc3)cc2c1)OC1CC1",
    "units.text": "mV",
    "V1/2": 4.7
  }
]
